Where these numbers come from: paper PMC5540273

tested on: CAMK4; conditions: concentration: 1 μM, replicates: in singlicate; n = 1;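 also: KINOMEscan kinase panel screen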
property: %Inh (%)
Express your answer in %, writing the number without its unit.

Exercise: What does the data say about its %Inh? Entry: "Nc1n[nH]c2ncc(-c3ccccc3)cc12"
Key: 0

Exercise: What does the data say about its %Inh? Entry: "CCC(=O)c1c(-c2ccccc2)c2cc(Cl)ccc2c(=O)n1Cc1cc(S(C)(=O)=O)n(CC(F)F)n1"
Key: 0

Exercise: What does the data say about its %Inh? Entry: "COc1cc2ncn(-c3cc(OCc4ccc(S(C)(=O)=O)cc4)c(C(N)=O)s3)c2cc1OC"
Key: 0

Exercise: What does the data say about its %Inh? Entry: "CCCNC(=O)Nc1ccc(Oc2ncnc3ccn(C)c23)cc1"
Key: 0

Exercise: What does the data say about its %Inh? Entry: "Nc1ncnc2c1ncn2-c1cccc2ccccc12"
Key: 38

Exercise: What does the data say about its %Inh? Entry: "CCn1c(-c2nonc2N)nc2ccccc21"
Key: 0

Exercise: What does the data say about its %Inh? Entry: COc1ccc(CNC(=O)NC2CCN(c3ccnc(Nc4ccc(F)cc4)n3)C2)cc1 (stereo not drawn)
Key: 0

Exercise: What does the data say about its %Inh? Entry: "Cc1nc(N(C)[C@H]2CN(C(=O)CC#N)CC[C@H]2C)c2cc[nH]c2n1"
Key: 6

Exercise: What does the data say about its %Inh? Entry: "COc1ccc(-n2cnc3c(N)ncnc32)cc1"
Key: 12

Exercise: What does the data say about its %Inh? Entry: Cc1nnc(-c2ccc3ncn(-c4ccc(S(C)=O)cc4)c3c2)o1 (stereo not drawn)
Key: 0

Exercise: What does the data say about its %Inh? Entry: "COC(=O)c1c(-c2ccccc2)c2cc(C)ccc2c(=O)n1Cc1ccccc1"
Key: 0

Exercise: What does the data say about its %Inh? Entry: "Cc1nnc(-c2ccc(C)c(-c3ccc(C(=O)O)cc3)c2)o1"
Key: 0

Exercise: What does the data say about its %Inh? Entry: "O=c1cc(N2CCOCC2)nc2n(Cc3ccc(F)c(Cl)c3)ccn12"
Key: 0

Exercise: What does the data say about its %Inh? Entry: "Nc1n[nH]c2nnc(-c3ccccc3)c(-c3ccccc3)c12"
Key: 0

Exercise: What does the data say about its %Inh? Entry: "O=C(Nc1n[nH]c2nc(-c3ccccc3)c(Cl)cc12)C1CC1"
Key: 0

Exercise: What does the data say about its %Inh? Entry: "COc1ccc(-c2coc3ccc(-c4nnc(SCc5cccc(C#N)c5)o4)cc23)cc1"
Key: 0

Exercise: What does the data say about its %Inh? Entry: "CCS(=O)(=O)c1ccc(OC)c(Nc2ncc(-c3ccc(F)cc3)o2)c1.Cl"
Key: 0

Exercise: What does the data say about its %Inh? Entry: "CN1C(=O)C(Nc2cc(Cl)c(O)c(Cl)c2)=C(c2ccc(Cl)cc2)C1=O"
Key: 0

Exercise: What does the data say about its %Inh? Entry: "Cc1nn2c(=O)cc(N3CCOCC3)nc2n1Cc1cccc(Cl)c1Cl"
Key: 25

Exercise: What does the data say about its %Inh? Entry: "COc1cc2ncn(-c3cc(OCc4ccncc4Br)c(C(N)=O)s3)c2cc1OC"
Key: 0

Exercise: What does the data say about its %Inh? Entry: "Cc1ccc(Oc2ccc(Nc3ncnc4cc[nH]c34)cc2C)cn1"
Key: 0

Exercise: What does the data say about its %Inh? Entry: "CCC(=O)c1c(-c2ccccc2)c2cc(Cl)ccc2c(=O)n1Cc1cc(S(C)(=O)=O)n(CC(N)=O)n1"
Key: 0

Exercise: What does the data say about its %Inh? Entry: "CN1C(=O)C(Nc2ccccc2)=C(c2ccccc2)C1=O"
Key: 0

Exercise: What does the data say about its %Inh? Entry: "OCCCNc1nccc(-c2c(-c3cccc(C(F)(F)F)c3)nn3cc(C(F)(F)F)ccc23)n1"
Key: 0

Exercise: What does the data say about its %Inh? Entry: "COc1cc(OC)cc(-c2cc3cnc(N)nc3nc2NC(=O)NC(C)(C)C)c1"
Key: 0

Exercise: What does the data say about its %Inh? Entry: "COc1cccc(C2=C(N(C)c3ccccc3)C(=O)NC2=O)c1"
Key: 0

Exercise: What does the data say about its %Inh? Entry: "COc1cc2nccc(Nc3ccc(OCc4ccc(NC(C)=O)cc4)cc3)c2cc1OC.Cl"
Key: 0

Exercise: What does the data say about its %Inh? Entry: "CCn1c(-c2ccoc2)nc2cnccc21"
Key: 0

Exercise: What does the data say about its %Inh? Entry: "COc1ccc(-c2cc3c(C)nc(N)nc3n([C@H]3CC[C@H](OCCO)CC3)c2=O)cn1"
Key: 5

Exercise: What does the data say about its %Inh? Entry: "COc1cc(Nc2ccnc3ccc(C(F)(F)F)cc23)cc(OC)c1OC"
Key: 10
